Test system: Plasmodium berghei
Experiment: Screen against P. berghei liver stage (PbLuc), transformed with Luciferase, at 10uM
Assay type: functional, HepG2
Conditions: tested at 10 uM
The campaign covered roughly 69,000 compounds. About 8,600 (12%) showed an effect of 50% or more. The full list was thinned out, with strong results kept by preference.
Decision: INHIBITION compared against 10%; not below it gives TRUE, below it gives FALSE.

Query: Reported INHIBITION at or above 10%? Cc1noc(C)c1CN1CCN(CCN(C)C)c2ncccc2C1
Response: TRUE

Query: Reported INHIBITION at or above 10%? O=C(c1ccco1)N(CC(F)(F)F)C1CCCOC1 (stereo not drawn)
Response: FALSE

Query: Reported INHIBITION at or above 10%? Cc1ccc(NS(=O)(=O)c2ccc(C#N)cc2)c(CN(C)C)c1
Response: FALSE

Query: Reported INHIBITION at or above 10%? COc1ccc(-n2cc3nc(N4CCCC4)[nH]cc-3c2=O)cc1Cl
Response: TRUE

Query: Reported INHIBITION at or above 10%? CC[C@H](C)Nc1ncc(-c2cccc(NC(=O)CNC)c2)cn1
Response: FALSE

Query: Reported INHIBITION at or above 10%? O=c1occ(CN2CCOCC2)c(O)c1CN1CCOCC1
Response: FALSE

Query: Reported INHIBITION at or above 10%? Cc1ccnc(C2CCN(C(=O)c3cnn(C)c3)C2)n1 (stereo not drawn)
Response: TRUE

Query: Reported INHIBITION at or above 10%? CC(C)(C)SCCN1CC(=O)N2CC[C@@H](O)C[C@H]2C1=O
Response: TRUE
